biological target: L-lactate dehydrogenase A chain (Homo sapiens); test: Inhibition of intracellular LDHA activity in human DLD-1 cell lysate assessed as conversion of NADH […] by spectrofluorometry; type: subcellular
pIC50: −log10 of the molar value.
QUANTITY NAME: pIC50

> print(dat)
                         chemical.string  reported.value
1  CCCCCCOCc1c(C(=O)OC)n(O)c2cccc(Br)c12            4.93

###

Overview of recorded IC50 for various molecules
target: L-lactate dehydrogenase A chain (Homo sapiens); experiment: Inhibition of human recombinant LDHA assessed as conversion of NADH […] at by spectrofluorometry
QUANTITY NAME: IC50 (nM)

> print(dat)
                            chemical.string                                       tgt  units.of.measure  reported.value
1     CCCCCCOCc1c(C(=O)OC)n(O)c2cccc(Br)c12  L-lactate dehydrogenase A chain (Homo sapiens)                nM              25
2  COC(=O)c1c(COCCc2ccccc2)c2c(Br)cccc2n1OC  L-lactate dehydrogenase A chain (Homo sapiens)                nM             124

###

Overview of recorded GI50 at 48 h for various compounds
assay: Cytotoxicity against mouse Hepa1-6 cells assessed as inhibition of cell growth measured after 48 hrs incubation by MTT assay; type: toxicity, cell-based, Hepa 1-6
QUANTITY NAME: GI50 at 48 h (µM)

> print(dat)
                            chemical.string  reported.value
1  COC(=O)c1c(COCCc2ccccc2)c2c(Br)cccc2n1OC            56.2
2     CCCCCCOCc1c(C(=O)OC)n(O)c2cccc(Br)c12            49.6

###

experiment: Cytotoxicity against human T HESCs cells assessed as inhibition of cell growth measured after 48 hrs incubation by MTT assay; type: toxicity, cell-based
Overview of recorded GI50 at 48 h for various compounds
QUANTITY NAME: GI50 at 48 h

> print(dat)
                            chemical.string  reported.value
1  COC(=O)c1c(COCCc2ccccc2)c2c(Br)cccc2n1OC        > 100 µM
2     CCCCCCOCc1c(C(=O)OC)n(O)c2cccc(Br)c12        > 100 µM
